# Test system: Staphylococcus aureus
# protocol.description: Antibacterial activity against Staphylococcus aureus ATCC 6538p after 24 hrs
# Format: functional
Item-by-item account of MIC
# value in µg/mL; strip the unit string

Oc1cc(Cc2c(Br)c(O)c(O)c(Br)c2Br)c(Br)c(Br)c1O : 25

*Q* Query: MIC; subject: Oc1c(Br)cc(Br)cc1Cc1cc(Br)cc(Br)c1O
*A* 1.56

*Q* Query: MIC; subject: Oc1cc(Br)c(Cc2cc(O)c(O)cc2Br)cc1O
*A* 25

*Q* Query: MIC; subject: Oc1cc(Cc2cc(O)c(O)c(Br)c2Br)c(Br)c(Br)c1O
*A* 25

*Q* Query: MIC; subject: Oc1cc(Cc2cc(O)c(O)c(Cl)c2Cl)c(Cl)c(Cl)c1O
*A* 25

*Q* Query: MIC; subject: Oc1cc(Cl)c(Cc2cc(O)c(O)c(Cl)c2Cl)cc1O
*A* 12.5

*Q* Query: MIC; subject: Oc1ccccc1Cc1cccc(Cl)c1O
*A* 50

*Q* Query: MIC; subject: CC1(C)S[C@@H]2[C@H](NC(=O)[C@H](N)c3ccccc3)C(=O)N2[C@H]1C(=O)O
*A* 1.56

*Q* Query: MIC; subject: Oc1ccc(Cl)cc1Cc1cc(Cl)ccc1O
*A* 12.5

*Q* Query: MIC; subject: Oc1ccccc1Cc1cc(Cl)ccc1O
*A* 25

###

# Test system: Staphylococcus aureus
# protocol.description: Antibacterial activity against Staphylococcus aureus ATCC 6538p after 24 hrs
# Type: functional
readout: MIC (µg/mL)
# value in µg/mL; strip the unit string

Oc1cc(Cl)c(Cc2cc(O)c(O)cc2Cl)cc1O : 50

*Q* Query: MIC; subject: Oc1c(Cl)cc(Cl)cc1Cc1cc(Cl)cc(Cl)c1O
*A* 0.78

###

# Test system: Proteus vulgaris
# protocol.description: Antibacterial activity against Proteus vulgaris ATCC 3851 after 24 hrs
# Assay type: functional
# experimental.setup: ATCC 3851, 24 h
readout: log10(MIC) (log10 of the value in mg/L)
Use the decimal logarithm of MIC (mg/L).

Oc1cc(Cl)c(Cc2cc(O)c(O)cc2Cl)cc1O : 1.70

*Q* Query: log10(MIC); subject: Oc1c(Br)cc(Br)cc1Cc1cc(Br)cc(Br)c1O
*A* 0.19

*Q* Query: log10(MIC); subject: Oc1ccccc1Cc1cccc(Cl)c1O
*A* 2.00

*Q* Query: log10(MIC); subject: Oc1cc(Cc2cc(O)c(O)c(Br)c2Br)c(Br)c(Br)c1O
*A* 1.40

*Q* Query: log10(MIC); subject: CC1(C)S[C@@H]2[C@H](NC(=O)[C@H](N)c3ccccc3)C(=O)N2[C@H]1C(=O)O [AMPICILLIN]
*A* 0.49

*Q* Query: log10(MIC); subject: Oc1cc(Cl)c(Cc2cc(O)c(O)c(Cl)c2Cl)cc1O
*A* 1.40

*Q* Query: log10(MIC); subject: Oc1cc(Cc2c(Br)c(O)c(O)c(Br)c2Br)c(Br)c(Br)c1O
*A* 1.10

###

# System: Proteus vulgaris
# protocol.description: Antibacterial activity against Proteus vulgaris ATCC 3851 after 24 hrs
# Format: functional
# experimental.setup: ATCC 3851, 24 h
readout: MIC (µg/mL)
# value in µg/mL; strip the unit string

Check out these entries, answers already filled in.
Oc1cc(Cc2cc(O)c(O)c(Cl)c2Cl)c(Cl)c(Cl)c1O : 25
Oc1ccccc1Cc1cc(Cl)ccc1O : 25
Oc1ccc(Cl)cc1Cc1cc(Cl)ccc1O : 12.5

*Q* Query: MIC; subject: Oc1c(Cl)cc(Cl)cc1Cc1cc(Cl)cc(Cl)c1O
*A* 0.78

*Q* Query: MIC; subject: Oc1cc(Br)c(Cc2cc(O)c(O)cc2Br)cc1O
*A* 25

###

# Tested on: Proteus vulgaris
# protocol.description: Antibacterial activity against Proteus vulgaris ATCC 3851 after 24 hrs
# Format: functional
# experimental.setup: ATCC 3851, 24 h
Item-by-item account of MIC

Check out these entries, answers already filled in.
Oc1ccc(Cc2cc(O)c(O)cc2Cl)cc1O : > 100 µg/mL
Oc1ccc(Cc2cc(O)c(O)cc2Br)cc1O : > 100 µg/mL

// below: MIC requested for another compound
*Q* Query: MIC; subject: Brc1cc2c(cc1Cc1cc3c(cc1Br)OCO3)OCO2
*A* > 100 µg/mL
